TARGET_ENTITY: human recombinant COX2 (hCOX2)
Sequence (P35354 1-604): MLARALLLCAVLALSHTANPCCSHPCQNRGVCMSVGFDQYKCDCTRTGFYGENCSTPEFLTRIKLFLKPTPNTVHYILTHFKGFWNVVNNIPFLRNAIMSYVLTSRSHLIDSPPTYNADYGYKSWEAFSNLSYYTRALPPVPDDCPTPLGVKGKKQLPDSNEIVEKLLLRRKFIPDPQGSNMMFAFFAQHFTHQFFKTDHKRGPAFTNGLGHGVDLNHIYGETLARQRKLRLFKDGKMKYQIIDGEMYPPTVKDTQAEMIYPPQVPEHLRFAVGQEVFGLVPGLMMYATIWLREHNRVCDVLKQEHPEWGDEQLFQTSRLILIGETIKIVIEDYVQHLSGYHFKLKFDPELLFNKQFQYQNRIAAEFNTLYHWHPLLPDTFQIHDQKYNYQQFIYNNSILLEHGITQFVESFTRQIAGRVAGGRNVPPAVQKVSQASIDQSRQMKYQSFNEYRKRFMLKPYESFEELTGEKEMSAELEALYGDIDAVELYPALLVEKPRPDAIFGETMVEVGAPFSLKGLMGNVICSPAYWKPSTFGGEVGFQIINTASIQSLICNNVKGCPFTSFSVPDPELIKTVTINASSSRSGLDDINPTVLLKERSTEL
ASSAY_METHOD_TEXT: LCMS-based COX2 enzymatic inhibition assay (PGE2 quantification)
Type: biochemical
Set-up: COX2 2 minutes pge2/pge2d4 area ratio Avg; other: 2 minutes; readout pge2/pge2d4 area ratio; average; COX2 2 minutes pge2/pge2d4 area ratio Avg; LLE; average LLE; COX2 2 minutes pge2 area (counts) Avg; readout pge2 area (counts); other: 2 min; "ovine COX2 (oCOX2), human recombinant COX2 (hCOX2)"
EXPERIMENTAL_PARAMETERS: 2 minutes; readout pge2 area (counts); average LLE
Response key: TRUE means COX2 2 minutes pge2 area (counts) Avg. LLE >= 4; FALSE means COX2 2 minutes pge2 area (counts) Avg. LLE < 4.

# example entries with known answers
INSERT INTO measurements (smiles, target_entity, class_assignment) VALUES
  ('CS(=O)(=O)c1ccc(-c2cnc3ccn(Cc4nccs4)c3n2)cc1', 'human recombinant COX2 (hCOX2)', 'FALSE'),
  ('CS(=O)(=O)c1ccc(-c2cnc3ccn(Cc4ccco4)c3n2)cc1', 'human recombinant COX2 (hCOX2)', 'TRUE'),
  ('COc1ncc(NCc2cccs2)nc1-c1ccc(S(C)(=O)=O)cc1', 'human recombinant COX2 (hCOX2)', 'TRUE'),
  ('CS(=O)(=O)c1ccc(-c2cnc(O)c(NCc3cccs3)n2)cc1', 'human recombinant COX2 (hCOX2)', 'FALSE');

Turning now to a further record.
Does `CS(=O)(=O)c1ccc(-c2nc(NCc3cccs3)ccc2S(C)(=O)=O)cc1` have a reported COX2 2 minutes pge2 area (counts) Avg. LLE of at least 4?
FALSE

###

TARGET_ENTITY: human recombinant COX2 (hCOX2)
ASSAY_METHOD_TEXT: LCMS-based COX2 enzymatic inhibition assay (PGE2 quantification)
Type: biochemical
Parameters: COX2 2 minutes pge2/pge2d4 area ratio Avg; other: 2 minutes; readout pge2/pge2d4 area ratio; average; COX2 2 minutes pge2/pge2d4 area ratio Avg; LLE; average LLE; COX2 2 minutes pge2 area (counts) Avg; readout pge2 area (counts); other: 2 min; "ovine COX2 (oCOX2), human recombinant COX2 (hCOX2)"
EXPERIMENTAL_PARAMETERS: 2 minutes; readout pge2 area (counts); average LLE
ASSAY_READOUT: COX2 2 minutes pge2 area (counts) Avg. LLE
Field format: numeric only.

Consider the reported COX2 2 minutes pge2 area (counts) Avg. LLE for these compounds:
INSERT INTO results (compound, observed_measurement) VALUES
  ('Cc1ncc(OCc2cccs2)nc1-c1ccc(S(C)(=O)=O)cc1', 4.215),
  ('COc1ncc(NCc2ccccn2)nc1-c1ccc(S(C)(=O)=O)cc1', 4.5985),
  ('Cc1ncc(-c2ccc(S(C)(=O)=O)cc2)nc1OCc1cccs1', 5.088),
  ('CS(=O)(=O)c1ccc(-n2ccc3ccc(NCc4ccoc4)nc32)cc1', 3.278),
  ('CS(=O)(=O)c1ccc(-c2cccc(NCc3cncs3)n2)cc1', 4.248),
  ('CS(=O)(=O)c1ccc(-c2cncc(SCc3ccoc3)n2)cc1', 5.417),
  ('CS(=O)(=O)c1ccc(-c2cncc(Oc3ccccc3)n2)cc1', 3.942),
  ('CS(=O)(=O)c1ccc(-c2cccc(NCc3ccoc3)n2)cc1', 4.974);

Sample `CS(=O)(=O)c1ccc(-c2ncc3ncn(Cc4cccs4)c3n2)cc1` — what was its COX2 2 minutes pge2 area (counts) Avg. LLE?
2.638

For `COc1cc(NCc2cccs2)cc(-c2ccc(S(C)(=O)=O)cc2)n1` , what is its reported COX2 2 minutes pge2 area (counts) Avg. LLE?
4.493

What value of COX2 2 minutes pge2 area (counts) Avg. LLE has been recorded for this entry: C[C@H](Oc1cncc(-c2ccc(S(C)(=O)=O)cc2)n1)c1cccs1 (single isomer, unassigned)
4.799

For the compound shown here, `Cc1coc(C(=O)Nc2cccc(-c3ccc(S(C)(=O)=O)cc3)n2)c1` , give the reported COX2 2 minutes pge2 area (counts) Avg. LLE.
2.659

Need COX2 2 minutes pge2 area (counts) Avg. LLE of `COc1ncc(NCc2ccon2)nc1-c1ccc(S(C)(=O)=O)cc1` , thanks.
6.197

I would be grateful if you could share the reported COX2 2 minutes pge2 area (counts) Avg. LLE for `CS(=O)(=O)c1ccc(-c2cccc(NCc3cc[nH]c3)n2)cc1` .
3.623

###

TARGET_ENTITY: human recombinant COX2 (hCOX2) (UniProt P35354)
ASSAY_METHOD_TEXT: LCMS-based COX2 enzymatic inhibition assay (PGE2 quantification)
Assay type: biochemical
Set-up: COX2 2 minutes pge2/pge2d4 area ratio Avg; other: 2 minutes; readout pge2/pge2d4 area ratio; average; COX2 2 minutes pge2/pge2d4 area ratio Avg; LLE; average LLE; COX2 2 minutes pge2 area (counts) Avg; readout pge2 area (counts); other: 2 min; "ovine COX2 (oCOX2), human recombinant COX2 (hCOX2)"
EXPERIMENTAL_PARAMETERS: 2 minutes; readout pge2/pge2d4 area ratio; average; read-out: COX2 2 minutes pge2/pge2d4 area ratio Avg. IC50
ASSAY_READOUT: IC50 (nM)
Number only, in nM; omit the unit.

INSERT INTO results (molecule, assay_readout, unit_tag, observed_measurement) VALUES
  ('CS(=O)(=O)c1ccc(-c2cccc(NCc3ccon3)n2)cc1 [Compound 150]', 'IC50', 'nM', 276),
  ('CS(=O)(=O)c1ccc(-c2cncc(NCc3cccs3)n2)c(O)c1 [Compound 137]', 'IC50', 'nM', 197),
  ('C[S+]([O-])c1ccc(-c2cncc(NCc3cccs3)n2)cc1 (centres unmarked) [Compound 129]', 'IC50', 'nM', 152),
  ('CS(=O)(=O)c1ccc(-c2cncc(OCc3ccoc3)n2)cc1 [Compound 58]', 'IC50', 'nM', 31),
  ('Cc1ncc(-c2ccc(S(C)(=O)=O)cc2)nc1NCc1cccs1 [Compound 145]', 'IC50', 'nM', 234);

IC50 of CS(=O)(=O)c1ccc(-c2cncc(SCc3ccon3)n2)cc1 [Compound 148] on human recombinant COX2 (hCOX2) (UniProt P35354)?
268

// lookup IC50 | system=human recombinant COX2 (hCOX2) (UniProt P35354) | key= CS(=O)(=O)c1ccc(-c2cnc(C(F)(F)F)c(OCc3cccs3)n2)cc1 [Compound 118]
114

What IC50 appears in the records for this molecule with human recombinant COX2 (hCOX2) (UniProt P35354)? C[C@H](Nc1cccc(-c2ccc(S(C)(=O)=O)cc2)n1)c1ccoc1 (single isomer, unassigned) [Compound 241]
2960

Request - read-out IC50 | tested on human recombinant COX2 (hCOX2) (UniProt P35354) | molecule CS(=O)(=O)c1ccc(-c2cncc(NCc3cnco3)n2)cc1 [Compound 215]
1530

For the record COc1ncc(NCc2cnco2)nc1-c1ccc(S(C)(=O)=O)cc1 [Compound 227] , what value of IC50 is listed for human recombinant COX2 (hCOX2) (UniProt P35354)?
2060

# get_value(readout= IC50, system= human recombinant COX2 (hCOX2) (UniProt P35354)) for CS(=O)(=O)c1ccc(-c2cccc(NCc3ccoc3)n2)cn1 [Compound 113]
103

Entry CS(=O)(=O)c1ccc(-c2cncc(NCc3ccc(F)cc3)n2)cc1 [Compound 96] , system human recombinant COX2 (hCOX2) (UniProt P35354): what IC50 was measured?
74.2

What measured IC50 is associated with CS(=O)(=O)c1ccc(-c2cccc(NCc3ccns3)n2)cc1 [Compound 87] on human recombinant COX2 (hCOX2) (UniProt P35354)?
61.9

Could you share what IC50 was measured for CS(=O)(=O)c1ccc(-c2cccc([C@@H](O)Cc3cccs3)n2)cc1 [Compound 205] , tested on human recombinant COX2 (hCOX2) (UniProt P35354)?
1250

Find IC50 (human recombinant COX2 (hCOX2) (UniProt P35354)) for the entry CS(=O)(=O)c1ccc(-c2cncc(NC[C@@H]3CCCO3)n2)cc1 [Compound 224]
1940

Item Cc1coc(CNc2cccc(-c3ccc(S(C)(=O)=O)cc3)n2)c1 [Compound 85] with human recombinant COX2 (hCOX2) (UniProt P35354) - IC50?
58.1

Form field: IC50 recorded for CS(=O)(=O)c1ccc(-c2cncc(OCc3cccs3)n2)cc1 [Compound 19] with human recombinant COX2 (hCOX2) (UniProt P35354) (enter value)
10.2

Entry Cn1ccc(CNc2cccc(-c3ccc(S(C)(=O)=O)cc3)n2)c1 [Compound 108] , system human recombinant COX2 (hCOX2) (UniProt P35354): what IC50 was measured?
94.5

Give recorded IC50 with human recombinant COX2 (hCOX2) (UniProt P35354) for the following molecule: COc1ncc(NCc2cccs2)nc1-c1ccc(S(C)(=O)=O)nc1 [Compound 60]
32.3

Item CS(=O)(=O)c1ccc(-c2cccc(NCc3ccc[nH]3)n2)cc1 [Compound 73] with human recombinant COX2 (hCOX2) (UniProt P35354) - IC50?
42.9
